The origin of these recorded values is patent US20260274981A1.

experimental_target: T1, recombinant human TfR (2474-TR, R&D Systems), biotinylated (human, UniProt P02786 89-760, biotinylated with EZ-Link NHS-PEG4-Biotinylation Kit)
T1 construct: Bought protein; also called immobilized recombinant human TfR; biotinylated human TfR
T1 sequence (P02786 89-760 limits assumed): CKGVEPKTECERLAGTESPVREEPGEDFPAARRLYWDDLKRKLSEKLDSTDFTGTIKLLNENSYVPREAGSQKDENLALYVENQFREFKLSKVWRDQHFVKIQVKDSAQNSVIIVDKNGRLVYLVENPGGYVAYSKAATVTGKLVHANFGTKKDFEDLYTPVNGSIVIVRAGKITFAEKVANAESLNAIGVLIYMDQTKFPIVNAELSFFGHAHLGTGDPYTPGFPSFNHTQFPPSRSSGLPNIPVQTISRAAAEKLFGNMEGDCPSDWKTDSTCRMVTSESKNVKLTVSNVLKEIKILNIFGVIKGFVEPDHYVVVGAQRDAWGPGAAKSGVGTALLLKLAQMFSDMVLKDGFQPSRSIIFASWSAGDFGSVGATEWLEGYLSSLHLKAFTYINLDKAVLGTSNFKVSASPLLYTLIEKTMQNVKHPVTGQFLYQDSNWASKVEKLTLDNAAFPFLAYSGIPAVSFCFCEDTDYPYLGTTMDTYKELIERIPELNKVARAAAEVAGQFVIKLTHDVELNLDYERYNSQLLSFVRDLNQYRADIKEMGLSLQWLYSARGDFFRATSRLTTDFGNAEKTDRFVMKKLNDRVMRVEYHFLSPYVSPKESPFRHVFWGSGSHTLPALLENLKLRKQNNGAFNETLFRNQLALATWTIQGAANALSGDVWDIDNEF
measurement_description: SPR (Biacore), biotinylated human TfR captured on an SA chip, VHH injected, 1:1 dissociation fit, pH 5.5
experimental_readout: koff (s⁻¹)
# number only, unit s⁻¹ dropped from output

Qu. Any idea what its koff is? The binder is BBB00709 (VHH, also called histidine mutant of BBB00515) VHH: EVQLVESGGGSVQPGGSLRLSCTASGRTFNYAMGWFRQAPGKNREFVATIDWKDHSSYYLDSVRGRFTIERDDAKNTVYLQMNSLRPEDAAVYTCAVGDGDYCSTYTCAAEVEYDYWGQGTLVTVSS
Ans. 0.00937

Qu. Give its koff value. Item: BBB00718 (VHH, also called histidine mutant of BBB00515) VHH: EVQLVESGGGSVQPGGSLRLSCTASGRTFNYAMGWFRQAPGKNREFVATIDWKDGSSYYLDSVRGRFTIERDDAKNTVYLQMNSLRPEDAAVYTCAVGDGDYCHTYTCAAEVEYDYWGQGTLVTVSS
Ans. 0.0154

Qu. What does the data say about its koff? Entry: BBB00704 (VHH, also called histidine mutant of BBB00515) VHH: EVQLVESGGGSVQPGGSLRLSCTASGRTFNYAMGWFRQAPGKNREFVATHDWKDGSSYYLDSVRGRFTIERDDAKNTVYLQMNSLRPEDAAVYTCAVGDGDYCSTYTCAAEVEYDYWGQGTLVTVSS
Ans. 0.00911

Qu. koff lookup needed for BBB00728 (VHH, Histidine mutant) VHH: EVQLVESGGGSVQPGGSLRLSCTASGRTFNYAMGWFRQAPGKNREFVATIDWKDGSSYYLDSVRGRFTIERDDAKNTVYLQMNSLRPEDAAVYTCAVGDGDYCSTYTCAAEVEYHYWGQGTLVTVSS , thanks.
Ans. 0.0127

Qu. Item BBB00677 (VHH, also called variant of BBB00533) VHH: EVQLVESGGGSVQPGGSLRLSCTASGRTFNYAMGWFRQAPGKNREFVATIDWKDGSSYYLDSVRGRFTIERDDAKNTVYLQMNSLRPEDAAVYTCAVGDGDYCSTYTCAAEVEYDYWGQGTLVTVSS has what recorded koff?
Ans. 0.00946

Qu. Looking for the measured koff of BBB00729 (VHH, also called histidine mutant of BBB00515) VHH: EVQLVESGGGSVQPGGSLRLSCTASGRTFNYAMGWFRQAPGKNREFVATIDWKDGSSYYLDSVRGRFTIERDDAKNTVYLQMNSLRPEDAAVYTCAVGDGDYCSTYTCAAEVEYDHWGQGTLVTVSS , can you help?
Ans. 0.0113
